Reported Stability is given for each of the following compounds.
System: Liver microsomes
Experiment: Metabolic stability in human liver microsomes at 1 uM by LC-MS/MS analysis
Format: ADME, Microsome
Could you give the number and then its unit, please?

Some solved cases for reference:
N#Cc1cc(-c2ccnc(Nc3ccc(-n4cnc(-c5ccccn5)n4)cc3)n2)cc(N2CCOCC2)c1 29 min
Cc1ncn(-c2ccc(Nc3nccc(-c4cccc(N5CCOCC5)c4)n3)cc2)n1 18 min
Fc1cc(-c2ccnc(Nc3ccc(-n4cnc(N5CCOCC5)n4)cc3)n2)cc(N2CCOCC2)c1 26 min

Lookup: State its Stability: Cn1nnc(-c2ccc(Nc3nccc(-c4cc(C#N)cc(N5CCOCC5)c4)n3)cc2)n1
Found: 17 min
